# Tested on: 628569-122-R-J1-PDC complex spheroid viability;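 also: spheroids exposed to agents for seven days before readout; 100% = DMSO vehicle control viability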
# measurement.description: Anticancer human tumor 628569-122-R-J1-PDC patient-derived head and neck squamous carcinoma cell line growth inhibition [CLK]
# test.context: second compound 0.316 µM; first compound 0.03 µM; active compounds read low
recorded.endpoint: viability, T/C (%)
Write the value in % as a bare number.

### Prompt Please give measured viability, T/C of the following entry: C=CC(=O)Nc1cc(Nc2nccc(-c3cn(C)c4ccccc34)n2)c(OC)cc1N(C)CCN(C)C + CNC(=O)c1ccc(Nc2nc(OC3CCCC3)c3c(-c4ccc5nc(C)oc5c4)c[nH]c3n2)c(OC)c1
### Response 49.5

### Prompt Please give measured viability, T/C of the following entry: CC(C)CC(NC(=O)C(Cc1ccccc1)NC(=O)c1cnccn1)B(O)O (stereo not drawn) + CN1CCN(c2cc(C(=O)Nc3cc4cc(-c5cnn(C)c5)ccc4cn3)ccn2)CC1
### Response 4.39

### Prompt Please give measured viability, T/C of the following entry: CC(C)CC(NC(=O)C(Cc1ccccc1)NC(=O)c1cnccn1)B(O)O (stereo not drawn) + CNC(=O)c1ccc(Nc2nc(OC3CCCC3)c3c(-c4ccc5nc(C)oc5c4)c[nH]c3n2)c(OC)c1
### Response 2.35
